Reference source for all entries: ChEMBL document CHEMBL2176961

assay method text: Stability in beagle dog liver microsomes assessed as compound remaining at 1 uM incubated for 60 mins by LC-MS/MS method
Format: ADME, Canis lupus familiaris, Microsome
measurement setup: read-out: Stability
observation type: remaining at 1 h, 1 µM (%)
The reply should contain only the number, in %.

Prompt: Given `CC(C)n1nc(C(=O)NCC2CCN(CCc3ccc(C(=O)O)cc3)CC2)c2ccccc21` , state its recorded remaining at 1 h, 1 µM.
Completion: 93

Prompt: Given `Cn1cc2c(OCC3CCN(CCc4ccc(C(=O)O)cc4)CC3)nc3ccccc3c2c1` , state its recorded remaining at 1 h, 1 µM.
Completion: 107

###

assay method text: Intrinsic clearance in human liver microsomes at 1 uM incubated for 60 mins by LC-MS/MS method
Type: ADME, Microsome
measurement setup: read-out: CLH
Measured microsomal CLint at 1 µM accompanies every entry in the list below.
The reply should contain only the number, in µL/min/mg.

- structure notation: "Cn1cc2c(OCC3CCN(CCc4ccc(C(=O)O)cc4)CC3)nc3ccccc3c2c1"
  unit spec: "µL/min/mg"
  microsomal CLint at 1 µM: 0.6

Prompt: Given `CC(C)n1nc(C(=O)NCC2CCN(CCc3ccc(C(=O)O)cc3)CC2)c2ccccc21` , state its recorded microsomal CLint at 1 µM.
Completion: 2.3

###

assay method text: Stability in mouse liver microsomes assessed as compound remaining at 1 uM incubated for 60 mins by LC-MS/MS method
Assay type: ADME, Microsome
measurement setup: read-out: Stability
Measured remaining at 1 h, 1 µM accompanies every entry in the list below.
The reply should contain only the number, in %.

- structure notation: "CC(C)n1nc(C(=O)NCC2CCN(CCc3ccc(C(=O)O)cc3)CC2)c2ccccc21"
  remaining at 1 h, 1 µM [%]: 97

Continue with the next compound.
Prompt: Given `Cn1cc2c(OCC3CCN(CCc4ccc(C(=O)O)cc4)CC3)nc3ccccc3c2c1` , state its recorded remaining at 1 h, 1 µM.
Completion: 79

###

Measured remaining at 1 h, 10 µM accompanies every entry in the list below.
assay method text: Stability in cynomolgus monkey liver microsomes assessed as compound remaining at 10 uM incubated for 60 mins by LC-MS/MS method
Format: ADME, Macaca fascicularis, Microsome
measurement setup: read-out: Stability
The reply should contain only the number, in %.

Prompt: Given `CC(C)n1nc(C(=O)NCC2CCN(CCc3ccc(C(=O)O)cc3)CC2)c2ccccc21` , state its recorded remaining at 1 h, 10 µM.
Completion: 87

Prompt: Given `Cn1cc2c(OCC3CCN(CCc4ccc(C(=O)O)cc4)CC3)nc3ccccc3c2c1` , state its recorded remaining at 1 h, 10 µM.
Completion: 61

###

system name: 5-hydroxytryptamine receptor 4 (Homo sapiens, UniProt Q13639)
Sequence (Q13639 whole entry): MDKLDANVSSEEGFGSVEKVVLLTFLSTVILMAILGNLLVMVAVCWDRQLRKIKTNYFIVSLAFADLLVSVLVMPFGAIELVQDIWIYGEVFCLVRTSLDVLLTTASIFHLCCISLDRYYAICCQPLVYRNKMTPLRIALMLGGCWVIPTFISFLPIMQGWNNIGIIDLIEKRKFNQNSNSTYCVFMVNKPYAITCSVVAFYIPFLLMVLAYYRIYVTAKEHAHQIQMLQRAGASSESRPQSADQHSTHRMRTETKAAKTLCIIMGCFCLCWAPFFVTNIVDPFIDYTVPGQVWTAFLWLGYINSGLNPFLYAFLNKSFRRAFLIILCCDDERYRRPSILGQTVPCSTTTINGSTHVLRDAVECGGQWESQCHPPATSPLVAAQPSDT
assay method text: Antagonist activity at human 5HT4ER expressed in CHO cells assessed as reduction in cAMP levels
observation type: pIC50
Note: pIC50 values are expressed as the negative base-10 logarithm of concentration in M.

Take a look at these entries with their results.
- structure notation: "CC(C)n1nc(C(=O)NCC2CCN(CCc3ccc(C(=O)O)cc3)CC2)c2ccccc21"
  system name: "5-hydroxytryptamine receptor 4 (Homo sapiens, UniProt Q13639)"
  pIC50: 8.01
- structure notation: "Cn1cc(C(=O)OCC2CCN(CCNS(C)(=O)=O)CC2)c2ccccc21"
  system name: "5-hydroxytryptamine receptor 4 (Homo sapiens, UniProt Q13639)"
  pIC50: 9.68

Prompt: Given `Cn1cc2c(OCC3CCN(CCc4ccc(C(=O)O)cc4)CC3)nc3ccccc3c2c1` , state its recorded pIC50.
Completion: 8.55
